test system: HCT-116 colon; test: NCI tumour cell line growth inhibition, 48 h
metric: GI50

compound smiles: Cc1oc2nc[nH]c(=O)c2c1C(=O)/C=C/c1ccc(Cl)cc1
target of assay: HCT-116 colon
reported result: 1.59 µM

### Prompt Field: GI50 (HCT-116 colon). Entry: COc1ccc(-c2nn(-c3ccc(NC(=O)c4ccc(Cl)c(C(F)(F)F)c4)cc3)cc2-c2ccncc2)cc1Cl
### Response 1.05 µM

### Prompt Field: GI50 (HCT-116 colon). Entry: CN(Cc1cnc(N)nc1N)c1ccc(C(=O)O)cc1
### Response > 100 µM

### Prompt Field: GI50 (HCT-116 colon). Entry: CN1CCN(CCCOc2cccc3nc(Nc4ccc(Cl)c(F)c4)ccc23)CC1
### Response 1.56 µM

### Prompt Field: GI50 (HCT-116 colon). Entry: O=C(/C=C/c1ccccc1)c1c[nH]c2ccccc2c1=O
### Response 3.11 µM
